What Relative activity was measured for each of the following?
- Tested on: Dictyostelium discoideum
- test-description: Compound was evaluated for nucleoside diphosphate kinase (NDP-kinase) activity relative to Adenosine triphosphate (100)
- Parameters: concentration or dose not given beside the values
Express it in %; write the number only.

What value of Relative activity has been recorded for this entry: O=P(O)(O)OP(=O)(O)OP(=O)(O)OC[C@H]1O[C@@H](n2cnc3c(Cl)ncnc32)[C@H](O)[C@@H]1O
110

Same lookup for Nc1ncnc2c1nc(Cl)n2[C@@H]1O[C@H](COP(=O)(O)OP(=O)(O)OP(=O)(O)O)[C@@H](O)[C@H]1O , please.
140

Same lookup for Nc1ncnc2c1ccn2[C@@H]1O[C@H](COP(=O)(O)OP(=O)(O)OP(=O)(O)O)[C@@H](O)[C@H]1O , please.
155

Same lookup for O=P(O)(O)OP(=O)(O)OP(=O)(O)OC[C@H]1O[C@@H](n2cnc3cncnc32)[C@H](O)[C@@H]1O , please.
130

Same lookup for O=P(O)(O)OP(=O)(O)OP(=O)(O)OC[C@H]1O[C@@H](n2cnc3cc(Cl)c(Cl)cc32)[C@H](O)[C@@H]1O , please.
145
